Answer each item with its documented EC50.
tested on: CSM14.1 neuronal cells; test: Cell survival assay (thapsigargin-treated CSM14.1 neuronal cells, CellTiter-Glo); format: cell-based; details: compound 2 hrs before about 15 μM thapsigargin, overnight, CellTiter-Glo luminescence

## Task EC50 for CCOc1ccc(S(=O)(=O)Nc2cccc3ccc(C)nc23)cc1 [D2] ?
## Result < 10 µM

## Task Record: Cc1ccc2cccc(NS(=O)(=O)c3ccc(C(F)(F)F)cc3)c2n1
## Result < 10 µM

## Task Record: Cc1ccc2cccc(NS(=O)(=O)c3ccc(C#N)cc3)c2n1
## Result 10 to 20 µM

## Task Record: Cc1ccc2cccc(NS(=O)(=O)c3ccc(C(C)(C)C)cc3)c2n1
## Result 10 to 20 µM

## Task Record: Cc1ccc2cccc(NS(=O)(=O)c3cc4ccccc4s3)c2n1
## Result 10 to 20 µM

## Task Record: Cc1ccc2cccc(NS(=O)(=O)c3ccc(N(C)C)cc3)c2n1
## Result 10 to 20 µM

## Task Record: Cc1ccc2cccc(NS(=O)(=O)c3ccc(C)o3)c2n1
## Result 10 to 20 µM

## Task Record: Cc1ccc2cccc(NS(=O)(=O)c3ccc(OC(C)C)cc3)c2n1 [D1]
## Result < 10 µM

## Task Record: COc1c(C)cccc1S(=O)(=O)Nc1cccc2ccc(C)nc12
## Result 10 to 20 µM

## Task Record: Cc1ccc2cccc(NS(=O)(=O)c3cc(Br)cs3)c2n1
## Result 10 to 20 µM
